Target: MtIOMT5 (Medicago truncatula, UniProt Q29U70)
Construct: His-tag (N); made in house; host or cells: E. coli BL21(DE3)
Sequence (Q29U70 1-364): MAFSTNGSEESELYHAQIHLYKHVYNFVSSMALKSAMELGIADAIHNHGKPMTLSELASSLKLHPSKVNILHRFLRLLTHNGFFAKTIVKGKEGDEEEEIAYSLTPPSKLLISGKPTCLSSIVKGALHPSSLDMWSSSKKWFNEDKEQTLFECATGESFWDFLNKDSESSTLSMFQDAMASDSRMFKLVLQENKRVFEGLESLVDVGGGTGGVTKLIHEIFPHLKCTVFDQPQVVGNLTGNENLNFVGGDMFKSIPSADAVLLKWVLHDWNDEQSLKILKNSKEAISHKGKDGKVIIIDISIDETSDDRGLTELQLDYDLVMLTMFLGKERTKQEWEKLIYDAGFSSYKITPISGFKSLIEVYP
Assay: OMT assays with purified recombinant MtIOMT5 (relative activity; HPLC/MS of products)
Assay type: biochemical
Details: 50 μM S-adenosyl methionine, 100 μM acceptor substrate; most converted substrate = 100%
For each entry below, report its Relative activity, MtIOMT5 value.
One number for each entry, in %.

These solved cases illustrate the format of a correct answer.
O=c1c(-c2ccc(O)cc2)coc2cc(O)c(O)cc12 [6,7,4′-trihydroxyisoflavone]; 0
O=c1cc(-c2ccc(O)cc2)oc2cc(O)ccc12 [7,4′-dihydroxyflavone]; 0
O=c1c(-c2ccc(O)cc2)coc2cc(O)ccc12; 0
O=c1c(O)c(-c2cc(O)c(O)c(O)c2)oc2cc(O)cc(O)c12; 0
O=c1c(-c2ccc(O)c(O)c2)coc2cc(O)ccc12 [7,3′,4′-trihydroxyisoflavone]; 0

Provide reported Relative activity, MtIOMT5 for each item, in the same order as listed.
1. COc1ccc(-c2coc3cc(O)c(O)cc3c2=O)cc1 [6,7-dihydroxy,4′-methoxyisoflavone]
2. O=c1oc2cc(O)ccc2c2oc3cc(O)ccc3c12
3. O=c1cc(-c2ccc(O)cc2)oc2cc(O)cc(O)c12
4. O=C1c2ccc(O)cc2OC(O)C1c1ccc(O)cc1 (centres unmarked) [2,7,4′-trihydroxyisoflavanone]
5. O=c1c(-c2ccc(O)cc2)coc2cc(O)cc(O)c12
6. O=C1c2ccc(O)cc2OCC1c1ccc(O)cc1 (centres unmarked) [Dihydrodaidzein]

1. 0
2. 0
3. 0
4. 100
5. 0
6. 7.9

The molecule identified as `COc1cc2c(=O)c(-c3ccc(O)cc3)coc2cc1O` registered its Relative activity, MtIOMT5 at 0
